Measured values drawn from patent US8163909B2 for this set.

Recorded IC50 for the following compounds
Target Or Test System: CYP2D6 (Homo sapiens)
Sequence (P10635 whole entry): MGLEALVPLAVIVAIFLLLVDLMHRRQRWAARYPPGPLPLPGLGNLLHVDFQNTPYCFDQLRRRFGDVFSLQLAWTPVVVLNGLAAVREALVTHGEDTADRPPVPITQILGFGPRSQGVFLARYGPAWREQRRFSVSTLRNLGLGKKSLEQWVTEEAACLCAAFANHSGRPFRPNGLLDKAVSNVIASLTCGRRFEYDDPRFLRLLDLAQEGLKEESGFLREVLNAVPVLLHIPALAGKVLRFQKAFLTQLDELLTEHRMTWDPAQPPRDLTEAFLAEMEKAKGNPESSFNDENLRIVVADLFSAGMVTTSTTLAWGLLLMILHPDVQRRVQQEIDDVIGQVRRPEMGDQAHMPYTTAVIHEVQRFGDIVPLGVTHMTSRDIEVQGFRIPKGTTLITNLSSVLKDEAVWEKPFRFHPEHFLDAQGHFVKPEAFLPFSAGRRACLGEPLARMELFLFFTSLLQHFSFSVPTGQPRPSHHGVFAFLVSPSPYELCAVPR
Measurement Protocol: CYP2D6 inhibition assay (bufuralol, pooled human liver microsomes)
Conditions: 2D6 IC50 (uM), CYP enzyme inhibition
Test Readout: IC50

{"Structure Notation": "COCC(=O)N[C@@H](Cc1ccc(F)cc1)[C@H](O)CN[C@H]1CC2(CCC2)Oc2c(-c3cnc[nH]3)cc(CC(C)C)cc21", "Result": "2.5 µM"}
{"Structure Notation": "CO[C@H](C)C(=O)N[C@@H](Cc1ccccc1)[C@H](O)CN[C@H]1CC2(CCC2)Oc2c(Br)cc(CC(C)C)cc21", "Result": "8.2 µM"}
{"Structure Notation": "CC(C)(C)Cc1cnc2c(c1)[C@@H](NC[C@@H](O)[C@H](Cc1ccc3c(c1)OCO3)NC(=O)[C@H]1CCO1)CC1(CCC1)O2", "Result": "3.3 µM"}
